MEASURED_TARGET: human GST-CLK1 (129-end) (Homo sapiens)
Sequence (P49759 129-484 limits assumed): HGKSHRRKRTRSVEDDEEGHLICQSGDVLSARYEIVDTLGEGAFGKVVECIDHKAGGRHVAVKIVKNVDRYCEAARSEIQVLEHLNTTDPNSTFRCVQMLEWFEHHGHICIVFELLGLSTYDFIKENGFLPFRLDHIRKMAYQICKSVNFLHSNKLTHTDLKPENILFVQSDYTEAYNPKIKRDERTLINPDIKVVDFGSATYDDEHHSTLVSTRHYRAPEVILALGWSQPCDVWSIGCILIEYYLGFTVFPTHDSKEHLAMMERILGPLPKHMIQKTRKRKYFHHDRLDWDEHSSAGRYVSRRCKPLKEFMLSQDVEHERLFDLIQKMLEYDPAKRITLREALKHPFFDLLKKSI
Counter-ions that a name gives are not always drawn.
# Lookup of reported IC50 keyed by entry
EXPERIMENTAL_ENDPOINT: IC50

1. COc1cc(S(C)(=O)=O)ccc1Nc1cc(NC2CCC2)c2c(C(F)(F)F)c[nH]c2n1	301 to 1000 nM
2. CCNc1cc(Nc2ccc(P3(=O)CCN(Cc4ccc(OC)cc4OC)CC3)cn2)nc2[nH]cc(C(F)(F)F)c12	< 100 nM
3. COCCNc1cc(Nc2ccc(C(=O)N3CCC(N4CCOCC4)CC3)c3c2OCCO3)nc2[nH]cc(C#N)c12	< 100 nM
4. COc1cc(S(=O)(=O)N2CCOCC2)ccc1Nc1cc(NC2CCC2)c2c(Cl)c[nH]c2n1	301 to 1000 nM
5. CNc1cc(Nc2ccc(C(=O)N3CCOCC3)c3c2OCCO3)nc2[nH]cc(Cl)c12 [Example 56, trifluoroacetate]	301 to 1000 nM
6. CCCNc1cc(Nc2ccc(S(C)(=O)=O)cc2OC)nc2[nH]cc(C#N)c12	301 to 1000 nM
7. O=C(c1ccc(Nc2cc(NC3CCCCC3)c3c(C(F)(F)F)c[nH]c3n2)c2c1OCCO2)N1CCOCC1	301 to 1000 nM
8. CCNc1cc(Nc2ccc(C(=O)N3CCN(C4COC4)CC3)c3c2OCC3)nc2[nH]cc(C(F)(F)F)c12	< 100 nM
9. COc1cc(S(C)(=O)=O)ccc1Nc1cc(NCCS(C)(=O)=O)c2c(C(F)(F)F)c[nH]c2n1	< 100 nM
10. CNc1cc(Nc2ccc(S(=O)(=O)N3CCC(N4CCOCC4)CC3)cc2OC)nc2[nH]ccc12	301 to 1000 nM
11. O=C(c1ccc(Nc2cc(NC3CC3)c3c(C(F)(F)F)c[nH]c3n2)c2c1CCO2)N1CCC(N2CCOCC2)CC1	< 100 nM
12. COc1cc(S(=O)(=O)N2CCOCC2)ccc1Nc1cc(NC2CC2)c2c(C#N)c[nH]c2n1	301 to 1000 nM
13. CCCNc1cc(Nc2ccc(S(C)(=O)=O)cc2OC)nc2[nH]cc(Cl)c12	301 to 1000 nM
14. CCNc1cc(Nc2ccc(C(=O)N3OCC[C@H]3c3cc(F)cc(F)c3)c3c2OCC3)nc2[nH]cc(C(F)(F)F)c12	301 to 1000 nM
15. CNc1cc(Nc2ccc(S(=O)(=O)N3CCOCC3)c3c2OCCO3)nc2[nH]cc(C(F)(F)F)c12	301 to 1000 nM
16. CCNc1cc(Nc2ccc(C(=O)N3C[C@@H](C)O[C@@H](C)C3)c3c2OCC3)nc2[nH]cc(C(F)(F)F)c12	101 to 300 nM
17. CCCNc1cc(Nc2ccc(S(=O)(=O)N3CCC(N4CCOCC4)CC3)cc2OC)nc2[nH]cc(C#N)c12	301 to 1000 nM
18. COc1cc(S(=O)(=O)N2CCC(N3CCOCC3)CC2)ccc1Nc1cc(NC2CC2)c2c(C#N)c[nH]c2n1	101 to 300 nM
19. COc1cc(S(=O)(=O)N2CCOCC2)ccc1Nc1cc(NC(C)C)c2cc[nH]c2n1	301 to 1000 nM
20. CCNc1cc(Nc2ccc(P(C)(=O)N3CCC(N4CCOCC4)CC3)cc2OC)nc2[nH]cc(C(F)(F)F)c12 (stereo not drawn)	< 100 nM
21. CNc1cc(Nc2ccc(C(=O)N3CCOCC3)c3c2OCO3)nc2[nH]cc(C(F)(F)F)c12	< 100 nM
22. O=C(c1ccc(Nc2cc(NC3CCC3)c3c(C(F)(F)F)c[nH]c3n2)c2c1OCCO2)N1CCC(N2CCOCC2)CC1	< 100 nM
23. CNc1cc(Nc2ccc(S(=O)(=O)N3CCOCC3)cc2OC)nc2[nH]ccc12	301 to 1000 nM
24. CNc1cc(Nc2ccc(P3(=O)CCN(C4CCOCC4)CC3)cc2OC)nc2[nH]cc(C(F)(F)F)c12	< 100 nM
25. CC(C)CNc1cc(Nc2ccc(C(=O)N3CCOCC3)c3c2OCCO3)nc2[nH]ccc12	301 to 1000 nM
26. COc1cc(S(C)(=O)=O)ccc1Nc1cc(NC(C)C)c2c(Cl)c[nH]c2n1	301 to 1000 nM
27. COCCNc1cc(Nc2ccc(S(=O)(=O)N3CCC(N4CCOCC4)CC3)cc2OC)nc2[nH]cc(C(F)(F)F)c12	< 100 nM
28. COc1cc(S(=O)(=O)N2CCC(N3CCOCC3)CC2)ccc1Nc1cc(NCCS(C)(=O)=O)c2c(C#N)c[nH]c2n1	301 to 1000 nM
29. CCOc1cc(Nc2ccc(C(=O)N3CCOCC3)c3c2OCCO3)nc2[nH]cc(C(F)(F)F)c12	301 to 1000 nM
30. CNc1cc(Nc2ccc(P3(=O)CCN(C4CC4)CC3)cc2OC)nc2[nH]cc(C#N)c12	301 to 1000 nM

Values were extracted from patent US12240844B2.
